Reference for the values: paper doi:10.1101/2025.08.13.670122v1

target: AT1R (Homo sapiens); assay: β-arrestin2 recruitment BRET (β-arrestin2-RLucII/rGFP-CAAX) in HEK293 cells expressing AT1R; type: cell-based; parameters: expressed in transfected cells; host or cells: HEK293 cells, transient PEI transfection; conditions: HEK293 cells transiently expressing AT1R; β-arrestin2-RLucII/rGFP-CAAX BRET; read 10 min after ligand; mean ± SEM of at least three to five independent experiments; SEM; read-out: EC50 βarr2
Peptide text beside a SMILES is read from it.
I'd be grateful if you could share measured EC50 for these entries.
Give bare numbers, in nM.

Recorded EC50, per entry:
molecule="CC[C@H](C)[C@H](NC(=O)[C@H](Cc1ccc(O)cc1)NC(=O)[C@@H](NC(=O)[C@H](CCCNC(=N)N)NC(=O)[C@@H](N)CC(=O)O)C(C)C)C(=O)N[C@@H](Cc1c[nH]cn1)C(=O)N1CCC[C@H]1C(=O)N[C@@H](Cc1cccc(O)c1)C(=O)O [24b]" numericresult=2.8
molecule="CC[C@H](C)[C@H](NC(=O)[C@H](Cc1ccc(O)cc1)NC(=O)[C@@H](NC(=O)[C@H](CCCNC(=N)N)NC(=O)[C@@H](N)CC(=O)O)C(C)C)C(=O)N[C@@H](Cc1c[nH]cn1)C(=O)N1CCC[C@H]1C(=O)N[C@@H](Cc1ccc(-c2ccccc2)cc1)C(=O)O [compound 13]" numericresult=15
molecule="CCCC[C@H](NC(=O)[C@@H]1CCCN1C(=O)[C@H](Cc1c[nH]cn1)NC(=O)[C@@H](NC(=O)[C@H](Cc1ccc(O)cc1)NC(=O)[C@@H](NC(=O)[C@H](CCCNC(=N)N)NC(=O)[C@@H](N)CC(=O)O)C(C)C)[C@@H](C)CC)C(=O)O [compound 2]" numericresult=0.86

Now for a further molecule.
What EC50 value was documented for this molecule, CC[C@H](C)[C@H](NC(=O)[C@H](Cc1ccc(O)cc1)NC(=O)[C@@H](NC(=O)[C@H](CCCN=C(N)N)NC(=O)[C@@H](N)CC(=O)O)C(C)C)C(=O)N[C@@H](Cc1c[nH]cn1)C(=O)N1CCC[C@H]1C(=O)N[C@@H](Cc1ccc(O)cc1)C(=O)O [24c] (H-DRVYIHPY-OH) ?
2.6

---

I'd be grateful if you could share measured Emax Gαq (% AngII) for these entries.
molecular target: AT1R (Homo sapiens, UniProt P30556); assay: Gαq activation BRET (GABY sensor) in HEK293 cells expressing AT1R; format: cell-based; design: expressed in transfected cells; host or cells: HEK293 cells, transient PEI transfection; conditions: HEK293/AT1R, GABY BRET sensor; response of the ligand at 10 μM, normalised to AngII
Sequence (P30556 whole entry): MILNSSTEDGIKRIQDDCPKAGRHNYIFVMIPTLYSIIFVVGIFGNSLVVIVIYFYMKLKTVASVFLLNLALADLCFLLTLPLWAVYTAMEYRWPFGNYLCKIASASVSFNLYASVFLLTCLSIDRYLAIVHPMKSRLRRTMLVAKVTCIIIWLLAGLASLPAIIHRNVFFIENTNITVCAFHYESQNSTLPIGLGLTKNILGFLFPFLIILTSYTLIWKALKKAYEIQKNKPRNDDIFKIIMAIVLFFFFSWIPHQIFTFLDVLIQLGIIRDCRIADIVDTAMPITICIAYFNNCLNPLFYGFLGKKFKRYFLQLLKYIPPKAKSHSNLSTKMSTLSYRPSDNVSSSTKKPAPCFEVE
Reply with the number and its unit after it.

Recorded Emax Gαq (% AngII), per entry:
structuresmiles=CC[C@H](C)[C@H](NC(=O)[C@H](Cc1ccc(O)cc1)NC(=O)[C@@H](NC(=O)[C@H](CCCNC(=N)N)NC(=O)[C@@H](N)CC(=O)O)C(C)C)C(=O)N[C@@H](Cc1c[nH]cn1)C(=O)N1CCC[C@H]1C(=O)N[C@@H](Cc1ccc(-c2ccccc2)cc1)C(=O)O subjectoftest="AT1R (Homo sapiens, UniProt P30556)" result="45 % AngII"
structuresmiles=CC[C@H](C)[C@H](NC(=O)[C@H](Cc1ccc(O)cc1)NC(=O)[C@@H](NC(=O)[C@H](CCCNC(=N)N)NC(=O)[C@@H](N)CC(=O)O)C(C)C)C(=O)N[C@@H](Cc1c[nH]cn1)C(=O)N1CCC[C@H]1C(=O)N[C@@H](Cc1ccncc1)C(=O)O subjectoftest="AT1R (Homo sapiens, UniProt P30556)" result="37 % AngII"
structuresmiles=CC[C@H](C)[C@H](NC(=O)[C@H](Cc1ccc(O)cc1)NC(=O)[C@@H](NC(=O)[C@H](CCCNC(=N)N)NC(=O)[C@@H](N)CC(=O)O)C(C)C)C(=O)N[C@@H](Cc1c[nH]cn1)C(=O)N1CCC[C@H]1C(=O)N[C@@H](Cc1cscn1)C(=O)O subjectoftest="AT1R (Homo sapiens, UniProt P30556)" result="29 % AngII"

Now for a further molecule.
What Emax Gαq (% AngII) value was documented for this molecule, "CC[C@H](C)[C@H](NC(=O)[C@H](Cc1ccc(O)cc1)NC(=O)[C@@H](NC(=O)[C@H](CCCNC(=N)N)NC(=O)[C@@H](N)CC(=O)O)C(C)C)C(=O)N[C@@H](Cc1c[nH]cn1)C(=O)N1CCC[C@H]1C(=O)N[C@@H](Cc1ccc2ccccc2c1)C(=O)O" ?
69 % AngII
